Please provide measured % activity (relative value, activity to N-benzyl-3-pyrrolidinone taken as 100%) for the entries that follow.
- Test system: reductase RDR
- assay.notes: Substrate specificity of the reductase RDR (NADH oxidation, decrease in absorbance at 340 nm)
- Format: biochemical, Devosia riboflavina IFO 13584
- stated.conditions: substrate 1 mM, NADH 0.25 mM, 100 mM phosphate buffer pH 6.5, 0.33% (v/v) dimethyl sulfoxide, 30° C.
One number for each entry, in %.

compound | quantity.unit | observed.value
CCCC=O | % | 728

Could I get % activity (relative value, activity to N-benzyl-3-pyrrolidinone taken as 100%) for every one of these entries?
1. CCOC(=O)CC(=O)CCl [ethyl 4-chloroacetoacetate]
2. CC(=O)c1ccc(C)cc1
3. CC(=O)c1cccnc1
4. O=Cc1ccncc1
5. CCC(=O)CC

Response given:
1. 683
2. 521
3. 788
4. 441
5. 32

# per-item lookup of % activity (relative value, activity to N-benzyl-3-pyrrolidinone taken as 100%); items listed below
1. CCOC(=O)C(C)=O [ethyl pyruvate]
2. COC(=O)CC(C)=O [methyl acetoacetate]

Response given:
6232
8341

// input: 4 compounds below; output: % activity (relative value, activity to N-benzyl-3-pyrrolidinone taken as 100%) for each
1. C=CC(C(C)=O)C(=O)OCC (stereo not drawn) [ethyl 2-eteneacetoacetate]
2. CCOC(=O)C(C)C(C)=O (stereo not drawn) [ethyl 2-methylacetoacetate]
3. O=C1CCN(Cc2ccccc2)C1
4. O=Cc1ccc(Cl)cc1

Response given:
1: 429; 2: 239; 3: 100; 4: 117

###

- Test system: reductase RDR
- assay.notes: Substrate specificity of the reductase RDR (NADH oxidation, decrease in absorbance at 340 nm)
- Assay type: biochemical, Devosia riboflavina IFO 13584
- stated.conditions: substrate 1 mM, NADH 0.25 mM, 100 mM phosphate buffer pH 6.5, 0.33% (v/v) dimethyl sulfoxide, 30° C.
Please enter fulfilled where % activity (relative value, activity to N-benzyl-3-pyrrolidinone taken as 100%) is greater than or equal to 2000%, and not fulfilled where it is lower.

Example entries begin here.
compound | class.assignment
CCC=O [propionaldehyde] | not fulfilled
CC(=O)c1ccc[nH]1 [2-acetylpyrrole] | not fulfilled
CCCCCC(C)=O [2-heptanone] | fulfilled
CCOC(=O)C(Cl)C(C)=O (stereo not drawn) [ethyl 2-chloroacetoacetate] | fulfilled
O=C(CCl)c1cccc(Cl)c1 [2-chloro-1-(3′-chlorophenyl)ethanone] | not fulfilled

Challenge: Check if % activity (relative value, activity to N-benzyl-3-pyrrolidinone taken as 100%) >= 2000% (inclusive). Item: O=C(c1ccccc1)C(O)c1ccccc1 (stereo not drawn) [benzoin]
Response given: not fulfilled

Challenge: Identify whether the reported % activity (relative value, activity to N-benzyl-3-pyrrolidinone taken as 100%) of the following compound is 2000% or greater: CC(=O)CCO [4-hydroxy-2-butanone]
Response given: not fulfilled

Challenge: Say whether CCCCCC=O [n-hexylaldehyde] shows % activity (relative value, activity to N-benzyl-3-pyrrolidinone taken as 100%) of 2000% or more.
Response given: fulfilled

Challenge: Exam item: decide whether the reported % activity (relative value, activity to N-benzyl-3-pyrrolidinone taken as 100%) for O=CCCCC=O [glutaraldehyde] is at least 2000%.
Response given: not fulfilled

Challenge: Check if % activity (relative value, activity to N-benzyl-3-pyrrolidinone taken as 100%) >= 2000% (inclusive). Item: CCOC(=O)CC(=O)CBr [ethyl 4-bromoacetoacetate]
Response given: fulfilled

Challenge: Quick check, % activity (relative value, activity to N-benzyl-3-pyrrolidinone taken as 100%) >= 2000%? O=Cc1ccccn1 [2-pyridinecarbaldehyde]
Response given: not fulfilled

Challenge: Check this compound for % activity (relative value, activity to N-benzyl-3-pyrrolidinone taken as 100%) at or above 2000%: CCC(C)=O [2-butanone]
Response given: not fulfilled
